Recorded measurements of Tm, one per entry
Assay: melting temperature; fluorescence melt of hairpins on a sequencing array, two-state fit, raised by 9.35 °C to match UV melts
Conditions: sodium 0.088 M
All answers are understood in °C, so give the number only.

GTATAGACGAAAGTCTAC (((..(((....)))))): 33.5
GCTGCCGAAAGGCCCAGC ((((((....)))..))): 35.8
GCGTAGGGAAACCCACGC ((((.((....)).)))): 54.3

Reported Tm ( GATCAAAGTATTGATC ((((((....)))))) ) = 42.6

Reported Tm for GCAATCGAAAGATCTGC ((((((....))).))) was 35.2

Briefly, Tm measured for GCTAGCGAAAGCTGAAGC ((((((....)))..))) : 43.1

###

Assay: melting temperature; fluorescence melt of hairpins on a sequencing array, two-state fit, raised by 9.35 °C to match UV melts
Conditions: sodium 0.088 M
MEASURED PROPERTY: Tm (°C)
// return numeric value only (unit: °C, not printed)

GATCTCATAGGAGATC ((((((....)))))): 51.2

For record GCGCACCCGAAAGGGCGC (((..(((....)))))) the listed Tm is 67

Per the record, GTGCCACGAAAGTGCCAC (((.(((....))).))) has Tm of 47.6

###

// Tm lookup, one value per entry
Test: melting temperature; fluorescence melt of hairpins on a sequencing array, two-state fit, raised by 9.35 °C to match UV melts
Details: sodium 0.088 M
// units = °C; emit number, no label

Worked examples, 5 sequences total:
GGGCTGGGAAACCAACCC (((.(((....))).))): 49
GATCAGTCGCCTGATC ((((((....)))))): 51.5
GCTCATGGAAACATGAAC (.(((((....))))).): 35.7
GATCCTTCCCAGGATC ((((((....)))))): 52
GATCTGGGCCAGATC ((((((...)))))): 53.2

# context switch: different sequence, same Tm
get_value(item= GCATGCGAAAGCAGTGC ((((((....))).))) , readout=Tm) returns 54.6

###

Test: folding enthalpy; higher = less favourable; fluorescence melt of hairpins on a sequencing array, two-state fit
Conditions: sodium 0.088 M
MEASURED PROPERTY: folding enthalpy (kcal/mol)
Kindly provide the numeric value in kcal/mol only, without the unit symbol.

In the examples that follow, each entry is paired with its recorded folding enthalpy.
GCCATCGAAAGATAAGGC ((((((....)))..))): -23.5
GATCTAGTTCTAGATC ((((((....)))))): -34.8
GCAAAGCGAAAGCATGGC ((.(.((....)).).)): -10.3
GAGCGTGGAAACGCGCTC (((((.(....).))))): -21.7

Note to self: folding enthalpy recorded for GACCCCCGAAAGGGAGTC (((.(((....))).))) was -28.8

Lab note: GGACGACGAAAGTCTTCC (((.(((....))).))) gave folding enthalpy of -27.1

In plain terms, GATTGCGAAAGCAAGATC ((((((....)))..))) has a documented folding enthalpy of -14.8

Entry GCACAGCGAAAGCAATGC (((..((....))..))) — recorded folding enthalpy = -10.9

get_value(item= GTAGGACGAAAGTCTTAC (((.(((....))).))) , readout=folding enthalpy) returns -26.2

// recorded folding enthalpy for GCCCAGGGAAACCCGAGC ((.(.((....)).).)) : -6.87

Input GCACGGCGAAAGCTCTGC (((..((....))..))) . Output folding enthalpy: -21.1

get_value(item= GATCAGCGTACTGATC ((((((....)))))) , readout=folding enthalpy) returns -30.2

folding enthalpy measured on GTGCTGACGAAAGTCCAC (((..(((....)))))) = -11.9
